Target: T1, human EpCAM (human, UniProt P16422 24-314)
T1 construct: whole, on cells; also called Epithelial cell adhesion molecule; CD326
T1 sequence (looked up): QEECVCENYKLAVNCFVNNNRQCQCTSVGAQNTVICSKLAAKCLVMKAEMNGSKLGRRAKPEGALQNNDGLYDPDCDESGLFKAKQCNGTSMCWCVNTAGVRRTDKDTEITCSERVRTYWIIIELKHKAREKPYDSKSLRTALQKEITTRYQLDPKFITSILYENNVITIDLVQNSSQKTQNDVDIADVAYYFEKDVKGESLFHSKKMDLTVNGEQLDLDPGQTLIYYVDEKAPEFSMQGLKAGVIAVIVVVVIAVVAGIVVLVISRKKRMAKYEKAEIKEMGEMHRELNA
Experiment: flow cytometry, scFv periplasmic preparation on human EpCAM transfected CHO cells

| binder | binding result |
| --- | --- |
| scFv PM52-H3 (scFv, Tested as periplasmic preparation from E. coli; also called PM52H3-VH-VL; not shown: His6-tag) scFv: QVQLVQSGAEVKKPGASVKLSCKASGYTFTYFDINWVRQTPEQGLEWMGGISPGDGNTNYNENFKGRVTMTRDTSKSTAYMELSRLRSDDTAVYYCARDGNFPYYAMDSWGQGTTVTVSSGGGGSGGGGSGGGGSDVVMTQSPLSLPVTLGEPASISCRSSQSLVYSNGNTYLHWYQQKPGQSPRLLIYKVSNRFSGVPDRFSGSGSGTDFTLKISRVEAEDVGVYFCSQSTHVPYTFGQGTKLEIKDYKDDDDK | no binding |
| scFv PM91-B6 (scFv, Tested as periplasmic preparation from E. coli; also called PM91B6-VH-VL; not shown: His6-tag) scFv: QVQLVQSGAEVKKPGASVKLSCKASGYTFTYFDINWVRQTPEQGLEWMGGISPGDGNTNYNENFKGRVTMTRDTSSSTAYMELSRLRSDDTAVYYCARDGNFPYYALTNWGQGTTVTVSSGGGGSGGGGSGGGGSDVVMTQSPLSLPVTLGEPASISCRSSQSLVYSNGNTYLHWYQQKPGQSPRLLIYKVSNRFSGVPDRFSGSGSGTDFTLKISRVEAEDVGVYFCSQSTHVPYTFGQGTKLEIKDYKDDDDK | no binding |
| scFv PM74-G3 (scFv, Tested as periplasmic preparation from E. coli; also called PM74G3-VH-VL; not shown: His6-tag) scFv: QVQLVQSGAEVKKPGASVKLSCKASGYTFTYFDINWVRQAPEQGLEWMGGISPGDGNTNYNENFKGRVTMTIDTSSSTAYIELSRLTSDDTAVYYCARDGNFPYYAMDSWGQGTTVTVSSGGGGSGGGGSGGGGSDVVMTQTPLSLPVSLGDQASISCRSSQSLVHSNGNTYLHWYLQKPGQSPKLLIYKVSNRFSGVPDRFSGSGSGTDFTLKISRVEAEDLGVYFCSQSTHVPYTFGGGTKLEIKDYKDDDDK | no binding |
